Every entry's value here was drawn from ChEMBL document CHEMBL1137944.

Let's look at some molecules and their measured logD.
- PROCEDURE TEXT: Distribution coefficient of compound was evaluated at pH 6.8
- MEASUREMENT CONDITIONS: octanol/water
Enter a number only.

Write down logD measured for item c1cc(CCCOc2ccc(-n3ccnc3)cc2)ccn1 2.81

---
Output measured logD for this item: CN(C)CCCCCCOc1ccc(-n2ccnc2)cc1 0.51

Given the molecule c1cncc(CCCOc2ccc(-n3ccnc3)cc2)c1 , write its reported logD. 2.85

Specify reported logD for the molecule shown: CCOC(=O)N1CCN(CCOc2ccc(-n3ccnc3)cc2)CC1 2.27

Look up logD of CN(C)CCOc1ccc(-n2ccnc2)cc1 and report it. -0.08

Return value of logD for input c1cn(-c2ccc(OCCN3CCOCC3)cc2)cn1 , no commentary. 0.91

For the molecule c1ccc(COc2ccc(-n3ccnc3)cc2)nc1 , report logD. 1.99

Return reported logD. Input molecule: c1ccc(CCCOc2ccc(-n3ccnc3)cc2)nc1 2.84

Output logD of CN(C)CCCOc1ccc(-n2ccnc2)cc1 -0.41

* * *

- MEASURED ON: Cytochrome P450 3A4 (Homo sapiens, UniProt P08684)
- Sequence (P08684 whole entry): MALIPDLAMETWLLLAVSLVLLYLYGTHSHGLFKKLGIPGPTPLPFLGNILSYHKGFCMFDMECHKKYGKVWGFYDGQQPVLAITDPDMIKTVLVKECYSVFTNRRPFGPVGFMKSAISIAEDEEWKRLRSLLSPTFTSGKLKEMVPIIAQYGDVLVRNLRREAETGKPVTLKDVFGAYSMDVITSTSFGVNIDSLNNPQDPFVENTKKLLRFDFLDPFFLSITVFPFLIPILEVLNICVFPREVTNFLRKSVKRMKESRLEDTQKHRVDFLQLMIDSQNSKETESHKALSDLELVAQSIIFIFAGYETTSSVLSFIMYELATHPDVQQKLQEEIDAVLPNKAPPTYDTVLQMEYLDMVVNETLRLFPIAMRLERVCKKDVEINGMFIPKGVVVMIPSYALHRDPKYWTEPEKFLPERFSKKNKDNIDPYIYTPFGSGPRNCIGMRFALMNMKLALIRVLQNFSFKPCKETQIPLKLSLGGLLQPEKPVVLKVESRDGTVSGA
Measured IC50, listed per entry for reference.

Look up Cytochrome P450 3A4 (Homo sapiens, UniProt P08684) data: IC50 of c1ccc(CCCOc2ccc(-n3ccnc3)cc2)nc1 , then report it. 252 nM

Look up and report IC50, with Cytochrome P450 3A4 (Homo sapiens, UniProt P08684) as system, for CCOC(=O)N1CCN(CCOc2ccc(-n3ccnc3)cc2)CC1 > 100000 nM

GET IC50 where system = Cytochrome P450 3A4 (Homo sapiens, UniProt P08684) and item = c1ccc(COc2ccc(-n3ccnc3)cc2)nc1 630 nM

Tell me its IC50 on Cytochrome P450 3A4 (Homo sapiens, UniProt P08684): c1cncc(CCCOc2ccc(-n3ccnc3)cc2)c1 417 nM

Identify measured IC50 obtained with Cytochrome P450 3A4 (Homo sapiens, UniProt P08684) for CN(C)CCCOc1ccc(-n2ccnc2)cc1 . 39000 nM

State the measured IC50 (Cytochrome P450 3A4 (Homo sapiens, UniProt P08684)) of c1cc(CCCOc2ccc(-n3ccnc3)cc2)ccn1 344 nM

* * *

Hi! I'm sharing some IC50 results obtained with Cytochrome P450 2C19 (Homo sapiens).
Sequence (P33261 whole entry): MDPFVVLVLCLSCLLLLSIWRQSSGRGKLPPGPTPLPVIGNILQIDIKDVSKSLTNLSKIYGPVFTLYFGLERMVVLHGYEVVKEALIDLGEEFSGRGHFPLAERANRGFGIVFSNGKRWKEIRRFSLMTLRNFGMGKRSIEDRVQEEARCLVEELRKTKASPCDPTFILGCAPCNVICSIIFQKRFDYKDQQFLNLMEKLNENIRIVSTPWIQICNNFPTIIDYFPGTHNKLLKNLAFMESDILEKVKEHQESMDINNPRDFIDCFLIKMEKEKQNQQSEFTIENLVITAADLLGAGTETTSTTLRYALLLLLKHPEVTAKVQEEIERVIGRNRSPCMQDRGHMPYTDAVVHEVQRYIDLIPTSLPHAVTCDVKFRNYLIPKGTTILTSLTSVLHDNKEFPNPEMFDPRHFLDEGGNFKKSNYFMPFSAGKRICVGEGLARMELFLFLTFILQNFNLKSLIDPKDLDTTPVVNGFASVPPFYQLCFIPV

Answer with reported IC50 of c1ccc(CCCOc2ccc(-n3ccnc3)cc2)nc1 < 46 nM

Output measured IC50 for this item: c1cc(CCCOc2ccc(-n3ccnc3)cc2)ccn1 < 46 nM

State its IC50 for this molecule: c1ccc(COc2ccc(-n3ccnc3)cc2)nc1 < 46 nM

Respond only with IC50 recorded for c1cncc(CCCOc2ccc(-n3ccnc3)cc2)c1 < 46 nM

Assign IC50 to the following record: CCOC(=O)N1CCN(CCOc2ccc(-n3ccnc3)cc2)CC1 469 nM

* * *

Reported IC50 values, UniProt:P11712.
Sequence (P11712 whole entry): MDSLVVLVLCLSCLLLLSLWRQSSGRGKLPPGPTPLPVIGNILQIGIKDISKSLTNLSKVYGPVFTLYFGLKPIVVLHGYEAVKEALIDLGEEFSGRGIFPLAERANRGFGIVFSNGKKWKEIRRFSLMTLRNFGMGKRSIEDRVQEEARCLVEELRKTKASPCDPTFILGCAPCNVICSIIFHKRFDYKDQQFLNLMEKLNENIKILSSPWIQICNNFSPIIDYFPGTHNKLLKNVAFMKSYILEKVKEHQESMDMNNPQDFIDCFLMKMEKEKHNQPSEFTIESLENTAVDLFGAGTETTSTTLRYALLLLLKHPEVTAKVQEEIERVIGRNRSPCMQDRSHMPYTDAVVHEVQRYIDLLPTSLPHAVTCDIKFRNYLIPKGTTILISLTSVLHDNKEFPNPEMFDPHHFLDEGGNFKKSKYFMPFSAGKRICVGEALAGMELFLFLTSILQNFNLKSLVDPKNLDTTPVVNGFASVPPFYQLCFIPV
Write it as a number; the unit nM goes unstated.

Please review the following examples before continuing.
Tell me its IC50 on UniProt:P11712: c1cncc(CCCOc2ccc(-n3ccnc3)cc2)c1 185

Provide the reported IC50 (system: UniProt:P11712) for c1cc(CCCOc2ccc(-n3ccnc3)cc2)ccn1 101

Answer with IC50 of c1ccc(COc2ccc(-n3ccnc3)cc2)nc1 measured for UniProt:P11712. 130

Now consider a different compound.
Give reported IC50 for c1ccc(CCCOc2ccc(-n3ccnc3)cc2)nc1 (UniProt:P11712) 129
